Overview of reported IC50 across a group of compounds:
# study.target: K103NNY181C mutant reverse transcriptase (Human immunodeficiency virus type 1 group M subtype B, UniProt P04585, K690N/Y768C)
# Construct: mutations that occur in the reverse transcriptase segment of the pol gene
# assay: Reverse transcriptase enzymatic assay (PicoGreen), K103N/Y181C mutant RT
# Assay type: biochemical, HIV-1
# test.settings: IC50 mut (nM), mutant (K103N/Y181C) reverse transcriptase, enzymatic assay of Example 24
observation.type: IC50 (nM)

>>> test_result("CC(C)(C)c1ccc(-n2nnnc2SCC(=O)Nc2ccc(NC(=O)Cc3cccc4occc34)cc2Cl)c(Cl)c1")
201
>>> test_result("CC(C)(C)c1ccc(-n2nnnc2SCC(=O)Nc2ccc(NC(=O)Cc3ccccc3Cl)cc2Cl)c(Cl)c1")
100
>>> test_result("CC(C)(C)c1ccc(-n2nnnc2SCC(=O)Nc2ccc(NC(=O)Cc3c(Cl)cccc3Cl)cc2Cl)c(Cl)c1")
712
>>> test_result("CC(C)(C)c1ccc(-n2nnnc2SCC(=O)Nc2ccc(NS(=O)(=O)c3cccs3)cc2Cl)c(Cl)c1")
331

* * *

# study.target: K103NNY181C mutant reverse transcriptase (Human immunodeficiency virus type 1 group M subtype B, UniProt P04585, K690N/Y768C)
# Construct: mutations that occur in the reverse transcriptase segment of the pol gene
# assay: Reverse transcriptase enzymatic assay (PicoGreen), K103N/Y181C mutant RT
# Assay type: biochemical, HIV-1
# test.settings: IC50 mut (nM), mutant (K103N/Y181C) reverse transcriptase, enzymatic assay of Example 24
observation.type: IC50 (nM)

>>> test_result("CC(C)(C)c1ccc(-n2nnnc2SCC(=O)Nc2ccc(NC(=O)CCC(=O)O)cc2Cl)c(Cl)c1")
123
>>> test_result("CC(C)(C)c1ccc(-n2nnnc2SCC(=O)Nc2ccc(NC(=O)Cc3ccccc3O)cc2Cl)c(Cl)c1")
27
>>> test_result("COC(C(=O)Nc1ccc(NC(=O)CSc2nnnn2-c2ccc(C(C)(C)C)cc2Cl)c(Cl)c1)c1ccccc1 (stereo not shown)")
89.5
>>> test_result("CC(C(=O)Nc1ccc(NC(=O)CSc2nnnn2-c2ccc(C(C)(C)C)cc2Cl)c(Cl)c1)c1ccccc1 (stereo not shown)")
335
>>> test_result("CC(C)(C)c1ccc(-n2nnnc2SCC(=O)Nc2ccc(NC(=O)Cn3cnnn3)cc2Cl)c(Cl)c1")
42.5
>>> test_result("CC(C)(C)c1ccc(-n2nnnc2SCC(=O)Nc2ccc(NC(=O)Cc3ccccn3)cc2Cl)c(Cl)c1")
30
>>> test_result("CC(C)(C)c1ccc(-n2nnnc2SCC(=O)Nc2ccc(NS(=O)(=O)c3ccccc3)cc2Cl)c(Cl)c1")
607
>>> test_result("CC(C)(C)c1ccc(-n2nnnc2SCC(=O)Nc2ccc(NC(=O)NCc3ccccc3)cc2Cl)c(Cl)c1")
428
>>> test_result("CC(C)(C)c1ccc(-n2nnnc2SCC(=O)Nc2ccc(NC(=O)c3ccccc3Cl)cc2Cl)c(Cl)c1")
121
>>> test_result("CC(C)(C)c1ccc(-n2nnnc2SCC(=O)Nc2ccc(NC(=O)C3CCCC3)cc2Cl)c(Cl)c1")
262
>>> test_result("CC(C)(C)c1ccc(-n2nnnc2SCC(=O)Nc2ccc(NC(=O)c3ccccc3)cc2Cl)c(Cl)c1")
106
>>> test_result("C#CCCC(=O)Nc1ccc(NC(=O)CSc2nnnn2-c2ccc(C(C)(C)C)cc2Cl)c(Cl)c1")
69
>>> test_result("CC(C)C(=O)Nc1ccc(NC(=O)CSc2nnnn2-c2ccc(C(C)(C)C)cc2Cl)c(Cl)c1")
83
>>> test_result("CC(C)(C)c1ccc(-n2nnnc2SCC(=O)Nc2ccc(NC(=O)Cc3ccccc3C(F)(F)F)cc2Cl)c(Cl)c1")
432
>>> test_result("CC(C)(C)c1ccc(-n2nnnc2SCC(=O)Nc2ccc(NC(=O)Cc3c[nH]c4ccccc34)cc2Cl)c(Cl)c1")
145
>>> test_result("CC(C)CCC(=O)Nc1ccc(NC(=O)CSc2nnnn2-c2ccc(C(C)(C)C)cc2Cl)c(Cl)c1")
414
>>> test_result("CC(C)(C)c1ccc(-n2nnnc2SCC(=O)Nc2ccc(NC(=O)Nc3ccc(C(=O)O)cc3)cc2Cl)c(Cl)c1")
43
>>> test_result("CC(C)(C)c1ccc(-n2nnnc2SCC(=O)Nc2ccc(NC(=O)Cc3ccccc3[N+](=O)[O-])cc2Cl)c(Cl)c1")
25
>>> test_result("CC(C)(C)c1ccc(-n2nnnc2SCC(=O)Nc2ccc(NC(=O)CC3CCCC3)cc2Cl)c(Cl)c1")
255

* * *

Overview of reported IC50 across a group of compounds:
# study.target: K103NNY181C mutant reverse transcriptase (Human immunodeficiency virus type 1 group M subtype B, UniProt P04585, K690N/Y768C)
# Construct: mutations that occur in the reverse transcriptase segment of the pol gene
# assay: Reverse transcriptase enzymatic assay (PicoGreen), K103N/Y181C mutant RT
# Assay type: biochemical, HIV-1
# test.settings: IC50 mut, K103N/Y181C mutant reverse transcriptase, enzymatic assay of Example 24
observation.type: IC50 (nM)

>>> test_result("C[C@H](CC(=O)O)C(=O)NC(C)(C)C#Cc1ccc(NC(=O)CSc2nnnn2-c2ccc(C3CC3)cc2Cl)c(Cl)c1")
8.2
>>> test_result("CC(C)(C#Cc1ccc(NC(=O)CSc2nnnn2-c2cc(Cl)ccc2Cl)c(Cl)c1)C(=O)O")
99
>>> test_result("CC(C)(C#Cc1ccc(NC(=O)CSc2nnnn2-c2ccc(C(C)(C)C)cc2Cl)c(Cl)c1)CO")
35
>>> test_result("CC(C)Oc1ccc(Cl)c(-n2nnnc2SCC(=O)Nc2ccc(C#CC(C)(C)C(=O)O)cc2Cl)c1")
61.5
>>> test_result("CC(C)(C#Cc1ccc(NC(=O)CSc2nnnn2-c2cc(C(C)(C)C)ccc2Cl)c(Cl)c1)NC(=O)CNc1cc[n+]([O-])cc1")
164
>>> test_result("CN(C)CCNC(=O)COC(C)(C)C#Cc1ccc(NC(=O)CSc2nnnn2-c2ccc(C(C)(C)C)cc2Cl)c(Cl)c1")
66
>>> test_result("CC(=O)NC(C)(C)C#Cc1ccc(NC(=O)CSc2nnnn2-c2cc(C(F)(F)F)ccc2Cl)c(Cl)c1")
40
>>> test_result("CC(C)(N)C#Cc1ccc(NC(=O)CSc2nnnn2-c2ccc(C3CC3)cc2Cl)c(Cl)c1F")
22.5
>>> test_result("CC(C)(C#Cc1ccc(NC(=O)CSc2nnnn2-c2ccc(C3CC3)cc2Cl)c(Cl)c1)C(=O)NS(=O)(=O)C1CC1")
30.5
>>> test_result("CC(C)(C#Cc1ccc(NC(=O)CSc2nnnn2-c2cc(C3CC3)cc(C(F)(F)F)c2Cl)c(Cl)c1F)NC(=O)c1ccc[n+]([O-])c1")
30.5
>>> test_result("CC(C)(N)C#Cc1ccc(NC(=O)CSc2nnnn2-c2cc(C(C)(C)C)ccc2Cl)c(Cl)c1")
52
>>> test_result("Cc1cc(Cl)c(-n2nnnc2SCC(=O)Nc2ccc(C#CC(C)(C)C(=O)O)cc2Cl)cc1C(F)(F)F")
51.5
>>> test_result("CC(C)(C#Cc1ccc(NC(=O)CSc2nnnn2-c2ccc(C(C)(C)C)cc2Cl)c(Cl)c1)OCC(=O)NCCO")
26
>>> test_result("CC(C)(C#Cc1ccc(NC(=O)CSc2nnnn2-c2ccc(C3CC3)cc2Cl)c(Cl)c1)OCCO")
16.5

* * *

# study.target: K103NNY181C mutant reverse transcriptase (Human immunodeficiency virus type 1 group M subtype B, UniProt P04585, K690N/Y768C)
# Construct: mutations that occur in the reverse transcriptase segment of the pol gene
# assay: Reverse transcriptase enzymatic assay (PicoGreen), K103N/Y181C mutant RT
# Format: biochemical, HIV-1
# test.settings: IC50 mut, K103N/Y181C mutant reverse transcriptase, enzymatic assay of Example 24
# Description: The enzymatic assay employed is described as follows: The reverse transcriptase (RT) enzyme assay has been adapted to a 96-well microtiter plate format and uses PicoGreen™ as a fluorescent intercalator. […] The plate was then analyzed using a POLARstar Galaxy fluorometer (BMG Labtechnologies) with λex and λem of 485 nm and 520 nm respectively. Each well was read for 1.25 second. […]
Overview of reported IC50 across a group of compounds:
observation.type: IC50 (nM)

>>> test_result("CC(C)(C#Cc1ccc(NC(=O)CSc2nnnn2-c2ccc(C3CC3)cc2Cl)c(Cl)c1F)NC(=O)c1cc[n+]([O-])cc1")
5.95
>>> test_result("CC(C)(C#Cc1ccc(NC(=O)CSc2nnnn2-c2ccc(C3CC3)cc2Cl)c(Cl)c1)NCc1nccs1")
15.5
>>> test_result("CC(C)(C#Cc1ccc(NC(=O)CSc2nnnn2-c2ccc(C3CC3)cc2Cl)c(Cl)c1)NC(=O)CC(=O)O")
10
>>> test_result("C=CC#Cc1ccc(NC(=O)CSc2nnnn2-c2ccc(C3CC3)cc2Cl)c(Cl)c1")
53.5

* * *

Overview of reported pIC50 across a group of compounds:
# study.target: K103NNY181C mutant reverse transcriptase (Human immunodeficiency virus type 1 group M subtype B, UniProt P04585, K690N/Y768C)
# Construct: mutations that occur in the reverse transcriptase segment of the pol gene
# assay: Reverse transcriptase enzymatic assay (PicoGreen), K103N/Y181C mutant RT
# Format: biochemical, HIV-1
# test.settings: IC50 mut, mutant reverse transcriptase, enzymatic assay of Example 24
pIC50: −log10 of the molar value.
observation.type: pIC50

>>> test_result("CC(C)(C)c1ccc(-n2nnnc2SCC(=O)Nc2ccc(C(=O)Nc3ccc(CCC(=O)O)cc3)cc2Cl)c(Cl)c1")
7.53
>>> test_result("Cc1cc(F)c(-n2nnnc2SCC(=O)Nc2ccc(-c3ccc(C(C)(C)C(=O)O)cc3)cc2Cl)c(Cl)c1")
7.32
>>> test_result("CC(C)(C)c1ccc(-n2nnnc2SCC(=O)Nc2ccc(OCC(=O)NCCO)cc2Cl)c(Cl)c1")
6.80
>>> test_result("O=C(CSc1nnnn1-c1ccc(C2CC2)cc1Cl)Nc1ccc(C(=O)NS(=O)(=O)c2ccccc2)cc1Cl")
6.95
>>> test_result("O=C(CSc1nnnn1-c1ccc(C2CC2)cc1Cl)Nc1ccc(-c2ccc(OCCN3CCCCC3)cc2)c(F)c1Cl")
7.52
>>> test_result("CC(C)(C(=O)O)c1ccc(-c2ccc(NC(=O)CSc3nnnn3-c3ccc(C4CC4)cc3Cl)c(Cl)c2)cc1")
7.72
>>> test_result("COC(=O)c1cccc(-c2ccc(NC(=O)CSc3nnnn3-c3ccc(C)cc3Cl)c(Cl)c2)c1")
6.84
>>> test_result("Cc1ccc(-c2ncsc2SCC(=O)Nc2ccc(-c3ccc(CC(=O)O)cc3)cc2Cl)c(Cl)c1")
6.10
>>> test_result("CC(C)(C)c1ccc(-n2nnnc2SCC(=O)Nc2ccc(-c3ccc(OCCN4CCOCC4)cc3)cc2Cl)c(Cl)c1")
7.38
>>> test_result("COC(=O)/C=C/c1ccc(NC(=O)CSc2nnnn2-c2ccc(C)cc2Cl)c(Cl)c1")
6.52
>>> test_result("CN1CCN(C(=O)c2ccc(NC(=O)CSc3nnnn3-c3ccc(C(C)(C)C)cc3Cl)c(Cl)c2)CC1")
6.40
>>> test_result("CC(C)(C)c1ccc(-n2nnnc2SCC(=O)Nc2ccc(C(=O)NCCO)cc2Cl)c(Cl)c1")
7.46
>>> test_result("CN(CCc1cc[n+]([O-])cc1)C(=O)COc1ccc(NC(=O)CSc2nnnn2-c2ccc(C3CC3)cc2Cl)c(Cl)c1")
6.88
>>> test_result("CC(C)(C)c1ccc(-n2nnnc2SCC(=O)Nc2ccc(-c3ccc(OCCN4CCC(C(=O)O)CC4)cc3)cc2Cl)c(Cl)c1")
7.44
>>> test_result("Cc1ccc(-n2nnnc2SCC(=O)Nc2ccc(-c3ccc(CCO)cc3)cc2Cl)c(Cl)c1")
7.55
>>> test_result("CC(C)(C)c1ccc(-n2nnnc2SCC(=O)Nc2ccc(OCC(=O)NC3CCOCC3)cc2Cl)c(Cl)c1")
6.94
>>> test_result("CC(C)(C)c1ccc(-n2nnnc2SCC(=O)Nc2ccc(OCC(=O)N3CCOCC3)cc2Cl)c(Cl)c1")
7.39
>>> test_result("Cc1ccc(-n2nnnc2SCC(=O)Nc2ccc(-c3ccc(CC(N)=O)cc3)cc2[N+](=O)[O-])c(Cl)c1")
7.70
>>> test_result("Cc1ccc(-n2nnnc2SCC(=O)Nc2ccc(-c3cocn3)cc2Cl)c(Cl)c1")
6.44
>>> test_result("CC(C)(C)c1ccc(-n2nnnc2SCC(=O)Nc2ccc(-c3ccc(OCCN4CC[C@@H](O)C4)cc3)cc2Cl)c(Cl)c1")
7.55
>>> test_result("CC(C)(C)c1ccc(-n2nccc2SCC(=O)Nc2ccc(-c3ccc(CC(=O)O)cc3)cc2Cl)c(Cl)c1")
6.67
>>> test_result("CC(C)(C)c1ccc(-n2nnnc2SCC(=O)Nc2ccc(C(=O)NCCc3ccncc3)cc2Cl)c(Cl)c1")
7.66
>>> test_result("O=C(O)Cc1ccc(-c2ccc(NC(=O)CSc3nnnn3-c3ccc4ccccc4c3Cl)c(Cl)c2)cc1")
7.19
>>> test_result("CC(C)(C)c1ccc(-n2nnnc2SCC(=O)Nc2ccc(C(=O)Nc3ccc(/C=C/C(=O)O)cc3)cc2Cl)c(Cl)c1")
7.85
>>> test_result("CC(C)(C)c1ccc(-n2nnnc2SCC(=O)Nc2ccc(OCC(=O)NCC(=O)O)cc2Cl)c(Cl)c1")
6.79
>>> test_result("O=C(CSc1nnnn1-c1ccc(C2CC2)cc1Cl)Nc1ccc(-c2ccc(OCCN3CCS(=O)(=O)CC3)cc2)c(F)c1Cl")
7.89
>>> test_result("CC(C)(C)c1ccc(-n2nnnc2SCC(=O)Nc2ccc(-c3ccc(OCC(=O)O)c(Cl)c3)cc2Cl)c(Cl)c1")
7.62
>>> test_result("O=C(COc1ccc(NC(=O)CSc2nnnn2-c2ccc(C3CC3)cc2Cl)c(Cl)c1)NCCc1cccnc1")
6.59
